System: colorectal cancer (6 cell lines)
test_method_notes: CellTiter-Glo Viability Assay, colorectal cancer
Format: cell-based
experimental_setup: Homo sapiens, HT-29; HT29 cell line; inhibition of cancer cell proliferation; read-out: Colorectal cancer, EC50 (μM) HT29
endpoint_label: log10(EC50) (log10 of the value in µM)

| record_smiles | log10(EC50) |
| --- | --- |
| CN(C)CCOc1cc(C(=O)Nc2cc3cc(-c4cnn(C)c4)ccc3cn2)ccn1 | -0.41 |
| CN1CCC2(CC1)CN(c1cc(C(=O)Nc3cc4cc(-c5cnn(C)c5)ccc4cn3)ccn1)C2 | -0.61 |
| CN1CCN(c2cc(Nc3ncc4c(-c5ccc6ncccc6c5)c[nH]c4n3)ccn2)CC1 | 0.08 |
| CN1CCC(Oc2ccc(NC(=O)c3n[nH]c4cc(F)c(-c5cnn(C)c5)cc34)cc2)CC1 | 0.23 |
| Cc1ncc(C(=O)Nc2cc3nc(-c4cnc(C)n4C)ccc3cn2)s1 | -0.60 |
| CC(C)Nc1cncc(-c2ccc3cnc(NC(=O)c4cn(C5CCN(CCF)CC5)nn4)cc3c2)n1 | -0.70 |
| CC(C)CC(=O)Nc1cncc(-c2ccc3[nH]nc(-c4cc5c(N6CCCCC6)cncc5[nH]4)c3c2)c1 | 0.45 |
| CN1CCN(c2cc(C(=O)Nc3cc4cc(-c5cn(C)nn5)ccc4cn3)ccn2)CC1 | -0.53 |
| O=C(Nc1c[nH]nc1-c1nc2c(-c3cccc(F)c3)cncc2[nH]1)c1cccnc1 | -0.68 |
| c1cc2cc(c1)-c1cncc3[nH]c(nc13)-c1n[nH]c3ccc(cc13)-c1cncc(c1)CNC2 | 0.11 |
| CN1CCC(Sc2ccc3cnc(NC(=O)c4ccnc(SC5CCN(C)CC5)c4)cc3c2)CC1 | -0.24 |
| CN1CCN(c2cc(C(=O)Nc3cc4cc(-c5cnn(C)c5)c(F)cc4cn3)ccn2)CC1 | -0.50 |
| CN1CCCCN(C)c2nccc3[nH]c(nc23)-c2n[nH]c3ccc(cc23)-c2cncc(c2)C1 | -0.34 |
| CN(C)C1CN(c2cc(C(=O)Nc3cc4cc(-c5cnn(C)c5)ccc4cn3)ccn2)C1 | 0.04 |
| CS(=O)(=O)NCc1cc(F)cc(-c2nccc3[nH]c(-c4n[nH]c5ccc(-c6cncc(NC(=O)C7CCC7)c6)cc45)cc23)c1 | 0.95 |
| CN1CCC(Oc2ccc(C(=O)Nc3cc4cc(-c5cnn(C)c5)ccc4cn3)cc2)CC1 | -0.11 |

###

System: pancreatic cancer (8 cell lines)
test_method_notes: CellTiter-Glo Viability Assay, pancreatic cancer
Type: cell-based
experimental_setup: Homo sapiens, CAPAN-1; Capan1 cell line; inhibition of cancer cell proliferation; read-out: Pancreatic cancer, EC50 Capan1
List of EC50 values.
endpoint_label: EC50 (µM)

| record_smiles | endpoint_label | measure_unit | reading_qualifier | reported |
| --- | --- | --- | --- | --- |
| CN1CCN(c2cc(C(=O)Nc3cc4cc(-c5cnn(C)c5)c(F)cc4cn3)ccn2)CC1 | EC50 | µM | = | 1.02 |
| CN1CCC2(CC1)CN(c1cc(C(=O)Nc3cc4cc(-c5cnn(C)c5)ccc4cn3)ccn1)C2 | EC50 | µM | = | 0.225 |
| Cc1ncc(-c2ccc3cnc(NC(=O)c4cnn(C5CCN(C)CC5)c4)cc3c2)o1 | EC50 | µM | = | 0.198 |
| Cc1n[nH]c2cc(F)c(-c3cncc(CN4CCNCC4)c3)cc12 | EC50 | µM | = | 4.84 |
| CN1CCC(Oc2ccc(NC(=O)c3n[nH]c4cc(F)c(-c5cnn(C)c5)cc34)cc2)CC1 | EC50 | µM | = | 2.09 |
| CN1CCC(C(=O)Nc2c[nH]nc2-c2nc3c(-c4ccc(F)s4)cccc3[nH]2)CC1 | EC50 | µM | = | 0.114 |
| O=C1CCc2cccc(c2)-c2cncc(c2)NC(=O)c2n[nH]c3ccc(cc23)-c2cncc(c2)CN1 | EC50 | µM | > | 10 |
| CN(C)Cc1cncc(-c2cnc3[nH]nc(-c4nc5c(-c6cc(F)cc(N7CCOCC7)c6)cncc5[nH]4)c3c2)c1 | EC50 | µM | = | 2.37 |
| CC(C)CC(=O)Nc1cncc(-c2ccc3[nH]nc(-c4cc5c(N6CCCCC6)cncc5[nH]4)c3c2)c1 | EC50 | µM | = | 3.51 |
| CC(C)Nc1cncc(-c2ccc3cnc(NC(=O)c4cn(C5CCN(CCF)CC5)nn4)cc3c2)n1 | EC50 | µM | = | 0.224 |
| Cn1ncc(-c2ccc3cnc(NC(=O)c4cccc(CN5CCCC5)c4)cc3c2)c1CN1CCCCC1 | EC50 | µM | = | 0.627 |
| O=C(Nc1ccc(OCCN2CCCC2)cc1)c1n[nH]cc1/C=C/c1cccnc1 | EC50 | µM | > | 10 |
| CN1CCN(c2cc(C(=O)Nc3cc4cc(-c5cnn(C)c5N)ccc4cn3)ccn2)CC1 | EC50 | µM | = | 0.152 |
| CN1CCN(c2cc(Nc3ncc4c(-c5ccc6ncccc6c5)c[nH]c4n3)ccn2)CC1 | EC50 | µM | = | 0.583 |
| CN(C)Cc1cncc(-c2ccc3[nH]nc(-c4cc5c(-c6ccoc6)ccnc5[nH]4)c3c2)c1 | EC50 | µM | > | 10 |
| CN1CCN(c2cc(C(=O)Nc3cc4cc(-c5cn(C)nn5)ccc4cn3)ccn2)CC1 | EC50 | µM | = | 0.225 |
| CS(=O)(=O)NCc1cc(F)cc(-c2nccc3[nH]c(-c4n[nH]c5ccc(-c6cncc(NC(=O)C7CCC7)c6)cc45)cc23)c1 | EC50 | µM | = | 1.81 |
| COc1ccc(NC(=O)c2n[nH]c3ccc(-c4cncc(CN5CCCCC5)c4)cc23)cn1 | EC50 | µM | = | 0.228 |

Numbers sourced from patent US20220062240A1.
